B1: PDS5B (parent)
chain: ITYPPGVKEISDKISKEEMVRRLK

- Variants of: B1
- MEASUREMENT_NOTES: protein stability index of a GFP-peptide fusion (GPS, HEK-293T) (PSI 1-6); higher = more stable;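 note: lentivirally expressed fusions sorted by FACS into six bins by GFP to DsRed ratio, PSI derived from sequencing read proportions per bin multiplied by bin number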
- MEASUREMENT_PARAMETERS: c terminus: a fixed tail appended
Cut-off 4 on protein stability index, inclusive. At or above means T; below means F.

The examples below pair each entry with its known result.
Hi team, for K13P , is the recorded protein stability index at or above 4?
T

Hi team, for L23E , is the recorded protein stability index at or above 4?
T

Hi team, for I14S , is the recorded protein stability index at or above 4?
T

Hi team, for I1E , is the recorded protein stability index at or above 4?
T

Hi team, for G6Q , is the recorded protein stability index at or above 4?
F

New cases:
Hi team, for E9S , is the recorded protein stability index at or above 4?
F

Hi team, for G6K , is the recorded protein stability index at or above 4?
T

Hi team, for V20F , is the recorded protein stability index at or above 4?
F

Hi team, for I10Q , is the recorded protein stability index at or above 4?
T

Hi team, for L23S , is the recorded protein stability index at or above 4?
T

Hi team, for I1W , is the recorded protein stability index at or above 4?
T

Hi team, for K8Q , is the recorded protein stability index at or above 4?
T
